Data provenance is PubChem BioAssay (NCI).

- Test system: NCI-H522 lung
- Experiment notes: NCI-60 one-dose screen, 48 h (100 = growth as untreated, 0 = no growth, -100 = all killed)
- Conditions used: 10 µM unless noted
- Experimental: Growth inhibition of the NCI-H522 human Non-Small Cell Lung tumor cell line is measured as a screen for anti-cancer activity. Cells are grown in 96 well plates and exposed to the test compound for 48 hours. Compounds are tested at a single concentration, which is 10^-5 M for most compounds. The reported endpoint is percent growth (GI% or GIPRCNT), where numbers from 0 - 100% represent growth inhibition, and numbers from -100% - 0 represent cell death. […]
The panel holds about 83,000 compounds, 20% with a hit somewhere; the sample as a whole holds those more often.
Value type: growth (%)
# value in %; strip the unit string

molecule=NC(=O)c1ccccc1NC(=O)c1ccccc1Cl system="NCI-H522 lung" value_type=growth measured_number=96.5
molecule=N#Cc1c(N)[nH]c(S)c1C#N system="NCI-H522 lung" value_type=growth measured_number=97.4
molecule=CN(C(=O)c1ccccc1)N(C)C(=O)c1ccccc1 system="NCI-H522 lung" value_type=growth measured_number=102
molecule="CCCCC1Nc2nc(SC)n(C)c(=O)c2CN(Cc2ccccc2)C1=O (stereo unspecified)" system="NCI-H522 lung" value_type=growth measured_number=76
molecule=O=C(Nc1cccc(C(F)(F)F)c1)Nc1ccc(OCc2nnc(-c3ccc(Cl)cc3)o2)c(F)c1 system="NCI-H522 lung" value_type=growth measured_number=64
molecule=N=c1ccn2c(n1)O[C@@H]1[C@@H](O)[C@H](CO)O[C@@H]12 system="NCI-H522 lung" value_type=growth measured_number=39.4
molecule=O=C(Nc1ccc(Cl)cc1)Nc1ccc(Oc2nncc3ccccc23)cc1 system="NCI-H522 lung" value_type=growth measured_number=-46.3
molecule=Oc1ccccc1/C=N\Nc1ccccc1 system="NCI-H522 lung" value_type=growth measured_number=10.5
molecule="CC1SC(c2c(Cl)cccc2Cl)N(NC(=O)c2[nH]c3ccc(F)cc3c2-c2ccccc2)C1=O (stereo unspecified)" system="NCI-H522 lung" value_type=growth measured_number=69
molecule=O=C(/C(=C/c1ccc([N+](=O)[O-])cc1)c1ccccc1)c1ccccc1 system="NCI-H522 lung" value_type=growth measured_number=31.4

In the following, a different molecule is considered.
Requested read-out: growth. Entry: `CC(C)[C@H]1CC[C@H]2[C@@H](CC[C@H]3[C@](C)(CN)CCC[C@]23C)C1`
80
